// reported IC50 per item
Biological target: Virion infectivity factor (Human immunodeficiency virus type 1 group M subtype B (isolate BH10)) + Virion infectivity factor (Human immunodeficiency virus type 1 group M subtype B (isolate BRU/LAI)) + Virion infectivity factor (Human immunodeficiency virus type 1 group M subtype B (isolate PCV12)) + Virion infectivity factor (Human immunodeficiency virus type 1 group M subtype B (isolate HXB2)) + DNA dC->dU-editing enzyme APOBEC-3G (Homo sapiens) (UniProt P69720+P69721+P69722+P69723+Q9HC16)
Test: HIV-1 Vif–A3G interaction blockers – biochemical, TR-FRET, GST-Vif 1-94, biotin-A3G peptide, dose response retest, primary screen (AID 1117319);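 further: Vif residues 1-94 fused to GST binding biotinylated APOBEC3G peptide 110-148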
Conditions: TR-FRET GST-Vif / biotin-A3G peptide binding
Results filed as inconclusive are left out.
readout_label: IC50

>>> obs_value("O=C1OC(c2ccc3ccccc3c2O)(c2ccc3ccccc3c2O)c2ccccc21")
"9.39 µM"
>>> obs_value("Cc1ncc(CO)c(/C=N/NC(=O)c2cc(O)c(O)c(O)c2)c1O")
"2.45 µM"
>>> obs_value("CC(CNc1ccccc1O)C(=O)O (centres undefined)")
"6.17 µM"
>>> obs_value("N=C1S/C(=C\\c2ccco2)C(=O)N1c1ccc2c(c1)OCO2")
"9.26 µM"
>>> obs_value("O=[N+]([O-])c1cc(CN2CCN(c3cccc(C(F)(F)F)c3)CC2)c2cccnc2c1O")
"8.68 µM"
>>> obs_value("Nc1ncnc2oc(-c3ccco3)c(-c3ccco3)c12")
"0.55 µM"
>>> obs_value("CCC(C)(C)n1nnnc1C(c1cc2cc(C)ccc2[nH]c1=O)N1CCCc2ccccc21 (centres undefined)")
"93.5 µM"
>>> obs_value("O=C1CCC/C1=C/Nc1ccc2c(c1)OCO2")
"2.09 µM"
>>> obs_value("Brc1c(CSc2nnc(-c3ccco3)o2)nc2ccccn12")
"30.6 µM"
>>> obs_value("O=C(c1cccc(-n2cccc2)c1)N1CCN(S(=O)(=O)c2ccccc2)CC1")
"17.3 µM"
>>> obs_value("Cc1ccc(Nc2ccc(N)cc2S(=O)(=O)O)cc1")
"32 µM"
>>> obs_value("Cc1c(C(=O)N2CCN(c3ccc(F)cc3)CC2)sc2nc(-c3ccccc3)cn12")
"48.7 µM"
>>> obs_value("O=C1C=C(N2CC2)c2ccccc2C1=O")
"11.3 µM"
>>> obs_value("CCOC(=O)c1cnn2c(N)c(C#N)nnc12")
"21.4 µM"
>>> obs_value("Cc1ccc(C)n1Cc1ccc(C(=O)O)cc1")
"1.55 µM"
>>> obs_value("O=[N+]([O-])c1ccc(N2CCN(c3ccc(Cl)nn3)CC2)c(Cl)c1")
"99.1 µM"
>>> obs_value("O=C(NC1CC1)c1cc(-c2ccco2)nc2ccccc12")
"2.53 µM"
>>> obs_value("Cc1ccn2cc(-c3nonc3C)cc2c1")
"22.5 µM"
>>> obs_value("O=C(O)C1Nc2c(Cl)cc(Cl)c(Cl)c2C2C=CCC12 (centres undefined)")
"30 µM"
>>> obs_value("C=CCn1c(C)c(C(C)=O)c(N2CCN(c3ccccc3)CC2)nc1=S")
"8.23 µM"
>>> obs_value("COc1cccc(=O)c2c(C)n(-c3ccc(C(=O)O)cc3)c(C)c12")
"3.22 µM"
>>> obs_value("O=C(C1CCCO1)N1CCC2(CC1)OCCO2 (centres undefined)")
"1.39 µM"
>>> obs_value("O=c1oc2c3c4c(cc2s1)CCCN4CCC3")
"9.54 µM"
>>> obs_value("N#CC(C(=O)NCc1ccco1)c1nc2ccccc2nc1N1CCOCC1 (centres undefined)")
"51.7 µM"

* * *

Biological target: Virion infectivity factor (Human immunodeficiency virus type 1 group M subtype B (isolate BH10)) + Virion infectivity factor (Human immunodeficiency virus type 1 group M subtype B (isolate BRU/LAI)) + Virion infectivity factor (Human immunodeficiency virus type 1 group M subtype B (isolate PCV12)) + Virion infectivity factor (Human immunodeficiency virus type 1 group M subtype B (isolate HXB2)) + DNA dC->dU-editing enzyme APOBEC-3G (Homo sapiens) (UniProt P69720+P69721+P69722+P69723+Q9HC16)
Test: HIV-1 Vif–A3G interaction blockers – biochemical, TR-FRET, GST-Vif 1-94, biotin-A3G peptide, dose response retest, primary screen (AID 1117319);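 further: Vif residues 1-94 fused to GST binding biotinylated APOBEC3G peptide 110-148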
Details: TR-FRET GST-Vif / biotin-A3G peptide binding
pIC50: −log10 of the molar value. Records with an inconclusive call do not appear.
readout_label: pIC50

>>> obs_value("CN1CCN(C2=C(Cl)C(=O)c3ccccc3C2=O)CC1")
5.35
>>> obs_value("CN(C)c1ccc(N2C(=O)CC(Nc3ccc(N4CCOCC4)cc3)C2=O)cc1 (stereo not drawn)")
5.91
>>> obs_value("COC/C=C/C1=CC2=CC(=O)C(C)(OC(=O)c3ccco3)C(=O)C2=CO1 (stereo not drawn)")
5.82
>>> obs_value("FC(F)(F)c1cc(-c2ccco2)nc(NCc2ccco2)n1")
5.37
>>> obs_value("CCC(C)(C)n1nnnc1C(c1ccc2ncccc2c1)N1CCN(c2ccc(O)cc2)CC1 (stereo not drawn)")
5.33
>>> obs_value("Cc1cc(C(C)c2ccccc2)c(O)c(CN2CCOCC2)c1C (stereo not drawn)")
4.54
>>> obs_value("COc1ccc2c(c1)c(=O)oc1cc(OCC(=O)N3CCC(C)CC3)ccc12")
4.26
>>> obs_value("O=C1CC(c2ccco2)CC(O)=C1C=NCC1CCNCC1 (stereo not drawn)")
4.87
>>> obs_value("O=C(NC1CCCC1)c1ccc2nc(-c3ccco3)c(-c3ccco3)nc2c1")
6.52
>>> obs_value("CCOc1ccc(-n2c(=O)c3c(C)c(C)sc3n(CC(=O)NCc3ccco3)c2=O)cc1")
4.13
>>> obs_value("Cc1cccc(N(C(=O)Cn2nnc3ccccc32)C(C(=O)NCc2ccco2)c2ccncc2)c1C (stereo not drawn)")
5.33
>>> obs_value("O=C(Nc1ccc2nc(-c3ccco3)c(-c3ccco3)nc2c1)N1CCCCCC1")
6.24
>>> obs_value("Nc1nc(Sc2ccc([N+](=O)[O-])c3nonc23)c2[nH]cnc2n1")
4.96

* * *

// reported pIC50 per item
Target: Virion infectivity factor (Human immunodeficiency virus type 1 group M subtype B (isolate BH10)) + Virion infectivity factor (Human immunodeficiency virus type 1 group M subtype B (isolate BRU/LAI)) + Virion infectivity factor (Human immunodeficiency virus type 1 group M subtype B (isolate PCV12)) + Virion infectivity factor (Human immunodeficiency virus type 1 group M subtype B (isolate HXB2)) + DNA dC->dU-editing enzyme APOBEC-3G (Homo sapiens) (UniProt P69720+P69721+P69722+P69723+Q9HC16)
Experiment: HIV-1 Vif–A3G interaction blockers – biochemical, TR-FRET, GST-Vif 1-94, biotin-A3G peptide, dose response retest, primary screen (AID 1117319);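 further: Vif residues 1-94 fused to GST binding biotinylated APOBEC3G peptide 110-148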
Conditions: TR-FRET GST-Vif / biotin-A3G peptide binding
pIC50: −log10 of the molar value. Results filed as inconclusive are left out.
readout_label: pIC50

>>> obs_value("CSc1nnc(-c2ccco2)c(-c2ccco2)n1")
5.83
>>> obs_value("CC(=O)NCc1c(Cl)cccc1-n1cccc1")
4.14
>>> obs_value("O=C(Nc1cc(Cl)cc(Cl)c1)c1coc(=O)c(Br)c1")
4.72
>>> obs_value("O=C(NCc1ccccn1)c1ccc2nc(-c3ccco3)c(-c3ccco3)nc2c1")
6.35
>>> obs_value("O=C(O)c1cccc2c1NC(C(=O)O)C1CC(Sc3ccccc3[N+](=O)[O-])C(Cl)C21 (stereo not given)")
6.30
>>> obs_value("O=C(OCC(=O)N1CCN(C(=O)c2ccco2)CC1)c1cc(-c2ccco2)nc2ccccc12")
5.40
>>> obs_value("COC(=O)C1=C(C)NC(=O)/C1=C\\c1cc(C)n(-c2ccccc2C)c1C")
4.85
>>> obs_value("COC(=O)c1ccccc1NC(=O)C1CCCC1")
6.26
>>> obs_value("Cc1onc(-c2ccccc2Cl)c1C(=O)N1CCN(c2cccc(Cl)c2)CC1")
4.02
>>> obs_value("COc1ccc(OC)c(S(=O)(=O)Nc2ccc(O)c3ccccc23)c1")
5.06
>>> obs_value("Oc1ccc(/C=N/N2CCCCC2)c(O)c1O")
4.72
>>> obs_value("Cc1noc(C)c1S(=O)(=O)Nc1ccc2c(c1)C(=O)N([C@@H](C)CO)C[C@H](C)[C@@H](CN(C)Cc1ccc(C(F)(F)F)cc1)OCCCC[C@H](C)O2")
4.02
>>> obs_value("O=C(N/N=C/C(Br)=C/c1ccccc1)c1cc(-c2ccco2)[nH]n1")
5.29
>>> obs_value("CCOC(=O)C1CCN(C(=O)COc2ccc(S(=O)(=O)NC(C)C)cc2)CC1")
4.56
>>> obs_value("Cc1[nH]c2ccccc2c1C1=CC(=O)C=CC1=O")
5.37
>>> obs_value("O=C1C(Cl)=C(Oc2ccccc2)C(=O)c2ccccc21")
4.63
>>> obs_value("CCCSC1=N/C(=C\\c2ccc([N+](=O)[O-])o2)C(=O)S1")
4.89
>>> obs_value("Cc1ccc(CCC(=O)Nc2ccc(S(N)(=O)=O)cc2)o1")
4.24
>>> obs_value("Cn1cccc1C(=O)NC(=O)COC(=O)CC12CC3CC(CC(Br)(C3)C1)C2")
4.23
>>> obs_value("CC1=C(SCc2ccccc2)C(=O)c2ccccc2C1=O")
4.24
>>> obs_value("Cc1ccc(C)c(/C(O)=C2/C(=O)C(=O)N(CCN3CCOCC3)C2c2ccco2)c1 (stereo not given)")
4.74
>>> obs_value("O=C(COc1ccc(S(=O)(=O)N2CCCC2)cc1)NCCC1=CCCCC1")
4.12
>>> obs_value("COc1ccc(S(=O)(=O)Nc2cc(SCC(=O)O)c(O)c3ccccc23)cc1")
4.66
>>> obs_value("COC(=O)Cc1cc(=O)n(-c2nc3ccccc3[nH]2)[nH]1")
4.66
>>> obs_value("CCOC(=O)c1cc([N+](=O)[O-])cc([N+](=O)[O-])c1Sc1ncnc2nc[nH]c12")
4.16
>>> obs_value("CCCSC1=N/C(=C\\C=C\\c2ccco2)C(=O)S1")
5.42
>>> obs_value("Cc1ccc(C2C(C#N)=C(N)Oc3c2oc(CO)cc3=O)o1 (stereo not given)")
5.69
>>> obs_value("CC(=O)Nc1cccc(Oc2ncnc3scc(-c4ccccc4)c23)c1")
4.78
>>> obs_value("Oc1cc2c(cc1O)[C@H]1c3ccc(O)c(O)c3OC[C@@]1(O)C2")
6.24
>>> obs_value("Cc1cc(C(=O)CSc2nc3ccccc3c(=O)[nH]2)c(C)n1C")
4.50
